Give measured protein stability index for each item. Keep answers brief.
B1: TSN (parent)
chain: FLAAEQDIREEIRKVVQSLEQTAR

Variants of: B1
Measurement notes: protein stability index of a GFP-peptide fusion (GPS, HEK-293T) (PSI 1-6); higher = more stable;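 further: lentivirally expressed fusions sorted by FACS into six bins by GFP to DsRed ratio, PSI derived from sequencing read proportions per bin multiplied by bin number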
Condition context: c terminus: a fixed tail appended

{"Monomer sequence": "FLANEQDIREEIRKVVQSLEQTAR", "protein stability index": 1.52}
{"Monomer sequence": "FLAAEQDQREEIRKVVQSLEQTAR", "protein stability index": 3.16}

Hey, quick one: what's protein stability index for each of these?
1. FLAAEQDIREEIRKVKQSLEQTAR
2. FLAREQDIREEIRKVVQSLEQTAR

Outgoing:
[2.38, 1.73]

Hey, quick one: what's protein stability index for each of these?
1. RLAAEQDIREEIRKVVQSLEQTAR
2. FAAAEQDIREEIRKVVQSLEQTAR
3. FLAAEQDIREEIRKVVQSNEQTAR

Outgoing:
2.79
2.19
3.8

Hey, quick one: what's protein stability index for each of these?
1. FLAAEQDIREEIRKVVQSLEQVAR
2. FLAAEQDNREEIRKVVQSLEQTAR
3. FLAAEQDIREEIRKVVQSLYQTAR
4. FLAAEQDIREEIRKVVQVLEQTAR
5. FLADEQDIREEIRKVVQSLEQTAR
6. FLAHEQDIREEIRKVVQSLEQTAR

Outgoing:
1. 2.55
2. 4.12
3. 2.07
4. 2.52
5. 2.11
6. 1.57

Hey, quick one: what's protein stability index for each of these?
1. FLAAEQDIREEIRKVVQALEQTAR
2. FLAAEQDIREEIRKVDQSLEQTAR

Outgoing:
1. 1.67
2. 3.78
